B1: library; numbered along this chain (parent)
chain: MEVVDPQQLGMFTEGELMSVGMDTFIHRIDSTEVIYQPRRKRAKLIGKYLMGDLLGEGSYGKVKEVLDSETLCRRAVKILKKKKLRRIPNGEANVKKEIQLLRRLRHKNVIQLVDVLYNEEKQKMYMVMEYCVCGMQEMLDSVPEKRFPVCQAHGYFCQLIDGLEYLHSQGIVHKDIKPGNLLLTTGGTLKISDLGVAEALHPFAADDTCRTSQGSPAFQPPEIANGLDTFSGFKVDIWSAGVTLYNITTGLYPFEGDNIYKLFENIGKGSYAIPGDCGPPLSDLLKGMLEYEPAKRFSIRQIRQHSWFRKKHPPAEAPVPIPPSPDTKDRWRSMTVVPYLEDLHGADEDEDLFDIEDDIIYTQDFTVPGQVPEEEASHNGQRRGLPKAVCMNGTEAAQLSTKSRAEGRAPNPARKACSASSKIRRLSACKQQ

Variants of: B1
Test: STK11 functional score (HeLa growth suppression), rescaled enrichment; synonymous median = 1, nonsense median = 0 (normalised score)
Details: with HeLa; variant type: missense
Measured STK11 functional score accompanies every entry in the list below.
Lab note: write the figure by itself, no unit.

// below: answered variants
# variant code, observed result
rows = [
    ("Y36S", 0.558),
    ("P254A", -0.109),
    ("L54M", 1.1),
    ("Y340A", 1.56),
]

Dear colleague, I am looking for the recorded STK11 functional score of the following variant: `Q382Y`
1.28

Give the measured STK11 functional score of `P324T` .
1.15

For the variant shown here, `I260M` , give the reported STK11 functional score.
1.32

Form field: reported STK11 functional score of `E92Y`
1.32

Bench note: what STK11 functional score did `T250Y` show?
1.31

Report STK11 functional score for `K81A` please.
1.66

Item under review: `G233L` . Reported STK11 functional score?
1.57
